These entries and their values trace back to PubChem BioAssay.

- assay info: growth inhibition of DIPG cells – cell-based, MIPE4.0 library, CellTiter-Glo luminescence, qHTS (AID 1347066);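 also: cells exposed to compound for 48 hours before readout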
- test parameters: SU-DIPG-VI viability, CellTiter-Glo ATP luminescence
Results filed as inconclusive are left out. Calls of active or inactive are those of the source. The limit is not given here; nearly all actives have AC50 up to about 30 µM.
Mark one answer only. Choices: active, inactive

Solved cases below.
Just curious, what result did Cc1ccc(-n2[nH]c(C)c(N=Nc3cccc(-c4cccc(C(=O)O)c4)c3O)c2=O)cc1C get here?
active

For O=C(NCc1ccccc1)c1csc(Nc2ccncn2)n1 , which call appears in the assay record?
active

Record lookup: outcome of this test for CC(=O)OC[C@@H]1O[C@@H](n2ccc(=O)[nH]c2=O)[C@H](OC(C)=O)[C@@H]1OC(C)=O ?
inactive

---
Fill in: this test's call for O=C(/C=C/c1cccc(S(=O)(=O)Nc2ccccc2)c1)NO is ___
active

Given Cc1cc(C(=O)N2CCN(c3cccc(Cl)c3)CC2)n(-c2ccccc2)n1 , state the outcome it received in this test.
inactive

* * *

- assay info: growth inhibition, single agent and combos, cell-based, chromothripsis tumors, cisplatin or BGB combos (AID 1671450);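 also: cells exposed to compound for four days; 0% = vehicle DMSO and 100% = cell killing by high DMSO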
- test parameters: HDN33 neuroblastoma cells, cisplatin combo, at 5 µM, stronger effect = higher value
Reported values of inhibition for individual entries
Quick note: give the figure in %, leave out the unit.

Study these solved cases before continuing.
Give recorded inhibition. COc1ccc(C(=O)CC2(O)C(=O)Nc3c(Cl)ccc(Cl)c32)cc1 (centres undefined)
59.7

Identify the reported inhibition for the following entry. CC(=O)Nc1nc(C)c(-c2ccc(Cl)c(S(=O)(=O)NCCO)c2)s1
37

Complete the entry with inhibition for Nc1ccc(-c2ccc3ncc4ccc(=O)n(-c5cccc(C(F)(F)F)c5)c4c3c2)cn1
93.5

Supply recorded inhibition for O=c1[nH]c([C@@H]2CCCN2)nc2c1oc1ccc(Cl)cc12 here.
-6.62

Look up and report measured inhibition for this entry: COc1cc2ncnc(-n3nc(-c4ccccn4)nc3N)c2cc1OC
11.6

Give reported inhibition value for O=C(/C=C/c1ccc(CN(CCO)CCc2c[nH]c3ccccc23)cc1)NO
99.9

Dear colleague, please send me the reported inhibition for NCCOc1cc(C(=O)Nc2cc(OCCN)c3ccccc3n2)nc(C(=O)Nc2cc(OCCN)c3ccccc3n2)c1 when you can.
-17.5

Given N=C1CCCN1Cc1[nH]c(=O)[nH]c(=O)c1Cl , respond with its inhibition.
22.1

Next molecule, please.
Report measured inhibition; entry is Nc1nc2n[nH]nc2c(=O)[nH]1
6.45

* * *

- assay info: galactose survival enhancers in mitochondrial complex I cybrids – cell-based, galactose medium, ATP luminescence, primary screen (AID 1645843);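 also: positive z means more ATP and so rescue of galactose-driven cybrid death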
- test parameters: complex I mutant cybrid cells, 72 h
Activity calls are given as the source filed them.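 How the source made its calls: active means z-score of at least 1.8 in each of two replicates, scored against plate mean and spread of sample wells; inactive means the rest.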
// allowed return values: true (active), false (inactive)

Assay result, entry CN1Cc2c(C(=O)OC(C)(C)C)ncn2-c2ccsc2C1=O — outcome?
false

Can you look up the reported call for COc1ccc(NC(=O)c2cc(OCCCN(C)C)nn2Cc2ccccc2)cc1 for me?
false

Please state the recorded outcome for this molecule: CS(=O)(=O)c1ccc(Cn2c3c(c4cc(F)cc(F)c42)CCCC3CC(=O)O)cc1 (stereo unspecified)
false

More entries:
Per the assay record, what outcome was assigned to COc1oc(=O)c2cc(N)ccc2c1Cl ?
false

Any idea what this test logged for CNC(=O)[C@H]1O[C@@H](n2cnc3c(NCc4cccc(I)c4)ncnc32)C(O)[C@H]1O (stereo partly specified) ?
true

How was Nc1ccc2c3c(cccc13)C(=O)NC2=O classified in this test?
false
